assay: Stability in DMEM medium at 30 uM at 37 degC after 3 days; type: physicochemical; conditions: read-out: Stability
MEASUREMENT TYPE: remaining at 72 h, 30 µM (%)
Output spec: scalar in %, unitless text.

Example entries begin here.
Ask: // Input: "O=C1c2cnccc2C(=O)c2nc3cc(CCO)ccc3nc21" . Output its remaining at 72 h, 30 µM only.
Reply: 95.5

Ask: // Input: "CCOC(=O)c1ccc2nc3c(nc2c1)C(=O)c1ccncc1C3=O" . Output its remaining at 72 h, 30 µM only.
Reply: 99.3

Ask: // Input: "O=C1C(Cl)=C(Nc2cccc(O)c2)C(=O)c2cnccc21" . Output its remaining at 72 h, 30 µM only.
Reply: 103

Ask: // Input: "CC(C)c1ccc2nc3c(nc2c1)C(=O)c1ccncc1C3=O" . Output its remaining at 72 h, 30 µM only.
Reply: 99.8

Next:
Ask: // Input: "O=C1C(Cl)=C(Nc2ccc(OC(F)(F)F)cc2)C(=O)c2cnccc21" . Output its remaining at 72 h, 30 µM only.
Reply: 87.8

Ask: // Input: "O=C1C(Cl)=C(Nc2ccc(CCO)cc2)C(=O)c2cnccc21" . Output its remaining at 72 h, 30 µM only.
Reply: 96.2

Ask: // Input: "O=C1C(Cl)=C(Nc2cccc(F)c2)C(=O)c2cnccc21" . Output its remaining at 72 h, 30 µM only.
Reply: 119

Ask: // Input: "COc1ccc(NC2=C(Cl)C(=O)c3ccncc3C2=O)cc1" . Output its remaining at 72 h, 30 µM only.
Reply: 103

Sourced from ChEMBL document CHEMBL1144488
